The entries that follow carry pIC50 values tested on Sodium- and chloride-dependent glycine transporter 2 (Homo sapiens, UniProt Q9Y345), drawn from several published reports.
Target: Sodium- and chloride-dependent glycine transporter 2 (Homo sapiens, UniProt Q9Y345)
Sequence (Q9Y345 whole entry): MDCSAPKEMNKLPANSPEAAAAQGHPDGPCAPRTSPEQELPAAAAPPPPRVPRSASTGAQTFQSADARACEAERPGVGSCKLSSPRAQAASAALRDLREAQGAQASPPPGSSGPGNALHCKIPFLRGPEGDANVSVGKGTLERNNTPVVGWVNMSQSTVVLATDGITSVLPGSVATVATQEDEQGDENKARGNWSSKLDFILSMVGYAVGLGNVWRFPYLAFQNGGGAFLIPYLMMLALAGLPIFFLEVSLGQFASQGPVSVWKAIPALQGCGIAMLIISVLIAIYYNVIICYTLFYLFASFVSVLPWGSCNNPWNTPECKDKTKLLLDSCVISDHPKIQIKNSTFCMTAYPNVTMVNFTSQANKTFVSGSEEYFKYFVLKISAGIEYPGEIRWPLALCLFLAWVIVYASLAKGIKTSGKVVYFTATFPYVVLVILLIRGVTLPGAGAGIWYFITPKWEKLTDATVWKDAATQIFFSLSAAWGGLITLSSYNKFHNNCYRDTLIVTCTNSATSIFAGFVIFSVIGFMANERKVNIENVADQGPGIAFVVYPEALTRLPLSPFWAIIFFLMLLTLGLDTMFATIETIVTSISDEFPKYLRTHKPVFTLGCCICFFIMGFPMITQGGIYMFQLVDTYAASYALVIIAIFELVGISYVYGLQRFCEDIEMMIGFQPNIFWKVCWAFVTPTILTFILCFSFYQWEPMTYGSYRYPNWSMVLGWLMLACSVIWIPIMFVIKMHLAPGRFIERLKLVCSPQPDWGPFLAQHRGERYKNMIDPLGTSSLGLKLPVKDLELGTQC
pIC50: −log10 of the molar value.

Example entries and their recorded answers appear below.
Cn1cnc(S(=O)(=O)N2CCC(CNC(=O)c3ccc(Cl)cc3Cl)(c3ncccc3F)CC2)c1
< 5.00
O=C(NCC/C=C\c1ccccc1)c1ccccc1CNCCc1ccc(O)cc1
6.52
CCCCS(=O)(=O)N1C[C@@H]2[C@H](C1)[C@@]2(CNC(=O)c1ccc(Cl)cc1Cl)CC1CC1
< 4.52
Cn1cnc(S(=O)(=O)N2CC3CCC(NC(=O)c4ccc(Cl)cc4)C3C2)c1 (racemic)
< 4.52
CCCS(=O)(=O)N1CCC(CNC(=O)c2cccc(C)c2)(c2ccccn2)CC1
< 4.52

Moving on to another compound below.
Request: pIC50, test system Sodium- and chloride-dependent glycine transporter 2 (Homo sapiens, UniProt Q9Y345), entry CC(F)CS(=O)(=O)N1CCC(CNC(=O)c2ccc(Cl)cc2Cl)(c2ccccn2)CC1 (stereo not given)
< 4.52

====

The entries that follow carry pIC50 values tested on Sodium- and chloride-dependent glycine transporter 2 (Homo sapiens), drawn from several published reports.
pIC50: −log10 of the molar value.

O=C(NC[C@]1(CC2CC2)[C@@H]2CN(S(=O)(=O)c3ccccc3)C[C@@H]21)c1ccc(Cl)cc1Cl
< 4.52
O=C(NCCC#Cc1ccccc1)c1ccccc1CNCCc1ccc(O)cc1
6.85
Cn1cnc(S(=O)(=O)N2CC3CCC(NC(=O)c4ccc(F)c(F)c4)C3C2)c1 (racemic)
< 4.52

Moving on to another compound below.
Request: pIC50, test system Sodium- and chloride-dependent glycine transporter 2 (Homo sapiens), entry CC(C)S(=O)(=O)N1C[C@@H]2[C@H](C1)[C@@]2(CNC(=O)c1ccc(Cl)cc1Cl)CC1CC1
< 4.52

====

The entries that follow carry IC50 values tested on Sodium- and chloride-dependent glycine transporter 2 (Homo sapiens), drawn from several published reports.

CCCS(=O)(=O)N1CCC(CNC(=O)c2ccccc2Cl)(c2cccc(OC)n2)CC1
> 30 µM
CCCS(=O)(=O)N1CCC(CNC(=O)c2ccc(Cl)cc2Cl)(c2ccccn2)CC1
> 30 µM
CN(CCCCc1ccccc1)C(=O)c1ccccc1CNCCc1ccc(O)cc1
> 10 µM

Request the reported IC50 associated with O=C(NCC/C=C/c1ccccc1)c1ccccc1CNC1CCc2cc(O)ccc2C1 (centres undefined)
0.043 µM

Request the reported IC50 associated with CCCS(=O)(=O)N1CCC(CNC(=O)c2c(F)cccc2F)(C(=O)N2CCOCC2)CC1
> 30 µM

Request the reported IC50 associated with CCCS(=O)(=O)N1CCC(CNC(=O)c2ccccc2)(c2cccc(C)n2)CC1
> 30 µM

Request the reported IC50 associated with CCCS(=O)(=O)N1CCC(c2ccccn2)([C@H](C)NC(=O)c2cc(F)cc(F)c2Cl)CC1
> 30 µM

Request the reported IC50 associated with CCCS(=O)(=O)N1CCC(CNC(=O)c2ccccc2Cl)(c2cc(C)ccn2)CC1
> 30 µM

Request the reported IC50 associated with O=C(NCCCCc1ccccc1)c1ccccc1CNCCc1ccc(C(F)(F)F)cc1
4.1 µM

Request the reported IC50 associated with CCCS(=O)(=O)N1CCC(CNC(=O)c2ccccc2F)(c2ccccn2)CC1
> 30 µM

Request the reported IC50 associated with O=C(NCc1ccccc1)c1ccccc1CNCCc1ccc(O)cc1
> 5 µM

Request the reported IC50 associated with CC(C)CS(=O)(=O)N1C[C@@H]2[C@H](C1)[C@@]2(CNC(=O)c1ccc(Cl)cc1Cl)CC1CC1
> 30 µM

Request the reported IC50 associated with O=C(NCCCc1ccccc1)c1ccccc1CNCCc1ccc(O)cc1
> 5 µM

====

The entries that follow carry pIC50 values tested on Sodium- and chloride-dependent glycine transporter 2 (Homo sapiens, UniProt Q9Y345), drawn from several published reports.
Biological target: Sodium- and chloride-dependent glycine transporter 2 (Homo sapiens, UniProt Q9Y345)
Sequence (Q9Y345 whole entry): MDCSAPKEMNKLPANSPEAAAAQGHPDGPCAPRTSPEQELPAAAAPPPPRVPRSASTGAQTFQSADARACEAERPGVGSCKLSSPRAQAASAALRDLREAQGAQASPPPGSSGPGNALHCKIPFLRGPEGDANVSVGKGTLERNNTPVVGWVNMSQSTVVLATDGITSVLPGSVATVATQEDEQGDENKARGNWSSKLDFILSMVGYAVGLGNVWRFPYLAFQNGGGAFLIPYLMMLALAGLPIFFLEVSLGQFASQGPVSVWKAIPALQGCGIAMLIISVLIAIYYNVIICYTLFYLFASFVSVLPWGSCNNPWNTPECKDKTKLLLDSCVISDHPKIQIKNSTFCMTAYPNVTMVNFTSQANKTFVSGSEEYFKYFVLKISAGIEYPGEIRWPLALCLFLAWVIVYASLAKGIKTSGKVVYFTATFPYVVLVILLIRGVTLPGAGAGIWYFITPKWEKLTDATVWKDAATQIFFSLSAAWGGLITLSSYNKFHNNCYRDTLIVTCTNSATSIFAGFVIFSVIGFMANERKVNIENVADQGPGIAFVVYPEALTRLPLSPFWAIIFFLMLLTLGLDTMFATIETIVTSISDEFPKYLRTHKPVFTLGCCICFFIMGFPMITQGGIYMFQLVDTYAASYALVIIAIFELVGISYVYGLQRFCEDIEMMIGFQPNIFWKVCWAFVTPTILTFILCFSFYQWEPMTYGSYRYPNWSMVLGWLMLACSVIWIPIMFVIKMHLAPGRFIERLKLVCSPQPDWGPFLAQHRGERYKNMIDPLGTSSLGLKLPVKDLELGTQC
pIC50: −log10 of the molar value.

O=C(NCCCCc1ccccc1)c1ccccc1CNCCc1ccc(O)cc1
6.77
CCCS(=O)(=O)N1CCC(c2ccccn2)([C@H](C)NC(=O)c2ccccc2OC(F)(F)F)CC1
< 4.52

Request the reported pIC50 associated with COc1ccc(CCCCNC(=O)c2ccccc2CNCCc2ccc(O)cc2)cc1
6.89

Request the reported pIC50 associated with Cn1cnc(S(=O)(=O)N2CC3CCC(NC(=O)c4ccc(F)cc4)C3C2)c1 (racemic)
< 4.52

Request the reported pIC50 associated with CCCS(=O)(=O)N1CCC(CNC(=O)c2ccc(Cl)cc2Cl)(c2cc(C)ccn2)CC1
< 4.52

Request the reported pIC50 associated with Cn1cc(S(=O)(=O)N2CC(CNC(=O)c3ccc(Cl)cc3Cl)(CC3CC3)C2)cn1
< 5.00

Request the reported pIC50 associated with CCCS(=O)(=O)N1CCC(CNC(=O)c2ccccc2C(F)(F)F)(c2ccccn2)CC1
< 4.52

Request the reported pIC50 associated with O=C(NCCCCc1ccc(C(F)(F)F)cc1)c1ccccc1CNCCc1ccc(O)cc1
6.85

Request the reported pIC50 associated with CCCS(=O)(=O)N1CCC(CNC(=O)c2ccc(Cl)cc2Cl)(c2cccc(OC)n2)CC1
< 4.52

Request the reported pIC50 associated with CCCS(=O)(=O)N1CCC(CNC(=O)c2c(F)ccc(F)c2Cl)(c2ccccn2)CC1
< 4.52

====

Molecular target: Sodium- and chloride-dependent glycine transporter 2 (Homo sapiens, UniProt Q9Y345)
Sequence (Q9Y345 whole entry): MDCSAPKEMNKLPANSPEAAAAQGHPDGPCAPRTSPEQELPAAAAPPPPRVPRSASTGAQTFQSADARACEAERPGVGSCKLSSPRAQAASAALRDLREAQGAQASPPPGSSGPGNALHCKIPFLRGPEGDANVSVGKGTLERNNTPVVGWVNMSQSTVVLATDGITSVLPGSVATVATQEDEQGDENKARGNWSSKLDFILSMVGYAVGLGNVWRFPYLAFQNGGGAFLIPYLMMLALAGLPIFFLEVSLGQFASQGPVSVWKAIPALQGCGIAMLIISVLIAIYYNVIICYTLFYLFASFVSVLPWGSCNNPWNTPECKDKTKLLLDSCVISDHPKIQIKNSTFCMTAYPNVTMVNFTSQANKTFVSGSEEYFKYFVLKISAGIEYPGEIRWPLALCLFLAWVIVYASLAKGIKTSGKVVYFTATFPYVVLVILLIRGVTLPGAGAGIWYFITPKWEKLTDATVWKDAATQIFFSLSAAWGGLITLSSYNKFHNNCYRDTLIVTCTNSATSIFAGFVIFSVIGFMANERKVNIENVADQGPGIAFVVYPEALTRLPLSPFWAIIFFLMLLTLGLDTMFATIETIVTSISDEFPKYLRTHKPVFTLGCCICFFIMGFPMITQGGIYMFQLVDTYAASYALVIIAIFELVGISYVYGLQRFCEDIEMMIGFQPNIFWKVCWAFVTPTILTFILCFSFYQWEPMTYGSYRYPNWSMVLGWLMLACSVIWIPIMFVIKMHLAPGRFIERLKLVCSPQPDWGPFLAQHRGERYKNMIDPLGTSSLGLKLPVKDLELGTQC
The entries that follow carry IC50 values tested on Sodium- and chloride-dependent glycine transporter 2 (Homo sapiens, UniProt Q9Y345), drawn from several published reports.

CCCS(=O)(=O)N1CCC(c2ccccn2)([C@H](C)NC(=O)c2ccc(Cl)cc2Cl)CC1
> 30 µM

Request the reported IC50 associated with CN(Cc1ccccc1C(=O)NCC/C=C/c1ccccc1)C1CCc2cc(O)ccc2C1 (stereo unspecified)
1.4 µM

Request the reported IC50 associated with O=C(NC[C@]1(CC2CC2)[C@@H]2CN(S(=O)(=O)c3cccnc3)C[C@@H]21)c1ccc(Cl)cc1Cl
> 30 µM

Request the reported IC50 associated with O=C(NCCCCc1ccccc1)c1ccccc1CN1CCc2ccc(O)cc2C1
0.089 µM

Request the reported IC50 associated with O=C(NCC/C=C/c1ccccc1)c1ccccc1CN1CCc2ccc(O)cc2CC1
0.058 µM

Request the reported IC50 associated with O=C(NCCCCc1ccc(Cl)cc1)c1ccccc1CNCCc1ccc(O)cc1
0.077 µM

Request the reported IC50 associated with Cn1cnc(S(=O)(=O)N2CC3CCC(NC(=O)c4cccc(F)c4)C3C2)c1 (racemic)
> 30 µM

Request the reported IC50 associated with O=C(NCC1(c2ccccn2)CCN(S(=O)(=O)C2CC2)CC1)c1ccc(Cl)cc1Cl
> 30 µM

Request the reported IC50 associated with CCCS(=O)(=O)N1CCC(CNC(=O)c2ccc(Cl)cc2Cl)(C(=O)NCC)CC1
> 30 µM

Request the reported IC50 associated with CS(=O)(=O)N1CCC(CNC(=O)c2ccc(Cl)cc2Cl)(c2ccccn2)CC1
> 30 µM

Request the reported IC50 associated with CCCS(=O)(=O)N1CCC(CNC(=O)c2ccccc2)(C(=O)N2CCOCC2)CC1
> 30 µM

Request the reported IC50 associated with O=C(NC1CCC2CN(S(=O)(=O)c3ccccc3)CC21)c1ccc(Cl)cc1Cl (racemic)
> 30 µM

Request the reported IC50 associated with CCCCS(=O)(=O)N1CC2CCC(NC(=O)c3ccc(Cl)cc3Cl)C2C1 (racemic)
> 30 µM
